Biological target: T1, canine CD20 on cells (HEK293, MDCK II, CLBL-1 or native B cells) (canine, UniProt Q3C2E2 1-297)
T1 chain: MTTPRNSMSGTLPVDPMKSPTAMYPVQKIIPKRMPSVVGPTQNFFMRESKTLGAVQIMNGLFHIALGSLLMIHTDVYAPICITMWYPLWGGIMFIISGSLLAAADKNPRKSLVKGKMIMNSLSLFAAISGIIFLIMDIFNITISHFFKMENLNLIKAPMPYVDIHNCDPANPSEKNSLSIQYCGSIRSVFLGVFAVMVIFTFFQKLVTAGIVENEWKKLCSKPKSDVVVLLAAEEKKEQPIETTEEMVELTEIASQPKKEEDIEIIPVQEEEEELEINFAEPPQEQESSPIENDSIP
Test: cell-based or functional assay
Item-by-item account of EC50 (nM), bispecific killing (FIG. 15)
Give just the number in nM; leave the unit off.

Binder	Outcome Measure	Recorded Number
PMX172VH/PMX264VH/PMX172VL (bispecific antibody, V domains shown) VH 1: EVQLVESGGDLVKPGGSLRLSCVASGFTFSSYHMSWVRQAPGKGLQWVAYSNSGGSRTSYADAVKGRFTISRDNAKNTLYLQMNSLRAEDTAVYYCASEGGGGRYGYKDYGMDYWGHGTSLFVSS VH 2: EVQLVESGGDLVKPGGSLRLSCVASGFTFSRYHMSWVRQAPGKGLQWVAFINTGRMSTNYADAVKGRFTISRDNAKNTLYLQMNSLRAEDTAVYYCTSLDYWGQGTLVTVSS VL: SYVLTQLPSKNVTLKQPAHITCGGDNIGSKSVHWYQQKLGQAPVLIIYYDSSRPTGIPERFSGANSGNTATLTISGALAEDEADYYCQVWDSSAKAWVFGEGTQLTVL	EC50 (nM), bispecific killing (FIG. 15)	0.361

Now look at this one.
Value of EC50 (nM), bispecific killing (FIG. 15) reported for the binder PMX172VH/PMX233VH/PMX172VL (bispecific antibody, V domains shown) VH 1: EVQLVESGGDLVKPGGSLRLSCVASGFTFSSYHMSWVRQAPGKGLQWVAYSNSGGSRTSYADAVKGRFTISRDNAKNTLYLQMNSLRAEDTAVYYCASEGGGGRYGYKDYGMDYWGHGTSLFVSS VH 2: EMQLVESGGDLVKPGGSLRLSCVASGFTFSRYYMNWVRQAPGKGLQWVAYIDSGGSPTNYADAVKGRFTISRDNAKNTLYLQMNSLRAEDAAIYYCTTFDFWGQGTLVTVSS VL: SYVLTQLPSKNVTLKQPAHITCGGDNIGSKSVHWYQQKLGQAPVLIIYYDSSRPTGIPERFSGANSGNTATLTISGALAEDEADYYCQVWDSSAKAWVFGEGTQLTVL is 0.188

The values you see were collected from patent US20240209086A1.
